# Tested on: Gli-responsive luciferase reporter cells, SUFU pathway antagonism
# method_summary: Gli-SUFU pathway antagonists, dose response, cell-based, luciferase luminescence, uHTS hits (AID 602464); in the data active = IC50 below about 20 µM; inactive = the rest
Would you mind answering with one of these outcomes? 1.0 (active), 0.0 (inactive)

As a guide, the following entries are already answered.
{"compound": "CCCCOC(=O)c1[nH]c2c(c1C)C(=O)CC(c1cc(OC)c(OC)c(OC)c1)C2 (stereo not drawn)", "category_label": 1.0}
{"compound": "COCCNC(=O)CSCc1nc(-c2ccc(SC)cc2)oc1C", "category_label": 1.0}
{"compound": "CCCOc1ccccc1N/C(=N/c1nc(C)cc(C)n1)NC(=O)COc1ccc(OC)cc1", "category_label": 1.0}
{"compound": "CC(=O)c1cccc(NS(=O)(=O)c2ccc(-c3cnc(C4CC4)o3)cc2)c1", "category_label": 1.0}
{"compound": "COc1ccc(-c2nn(-c3ccccc3)cc2/C=N/NC(=O)c2ccc(Br)o2)cc1", "category_label": 1.0}

-- ask // return assay outcome for CNS(=O)(=O)c1cccc(C(=O)OCC(=O)c2cc(C)n(CC3CCCO3)c2C)c1 (stereo not drawn)
-- reply 1.0

---

Recorded IC50 by entry
# System: Gli-responsive luciferase reporter cells, SUFU pathway antagonism
# method_summary: Gli-SUFU pathway antagonists, dose response, cell-based, luciferase luminescence, uHTS hits (AID 602464)

Example results:
{"compound": "O=C(c1cc(COc2cccc3cnccc23)on1)N1CCCC(CCCO)C1 (configuration not stated)", "IC50": "1.53 µM"}
{"compound": "Cc1ncoc1C(=O)NC1CCCc2c1cnn2-c1ccc(C(C)(C)C)cc1 (configuration not stated)", "IC50": "7.46 µM"}
{"compound": "COc1cc(NS(=O)(=O)c2ccc(C)cc2C)cc(OC)c1OC", "IC50": "6.71 µM"}
{"compound": "CCCc1c(CC)c(=N)c2ccccc2n1C", "IC50": "12.9 µM"}
{"compound": "O=C(C[C@H]1C/C=C\\C[C@@H](NC(=O)OCC2c3ccccc3-c3ccccc32)C(=O)O[C@@H](c2ccccc2)CNC1=O)N[C@H](CO)Cc1ccccc1", "IC50": "7.67 µM"}

# IC50 of O=C(Nc1cc(N2CCCCC2)ncn1)c1ccccc1 = 0.294 µM

# IC50 of CC1CN(S(=O)(=O)c2ccc(C(=O)Nc3nc(-c4cc5ccccc5o4)cs3)cc2)CC(C)O1 (configuration not stated) = 1.26 µM

# IC50 of CN(Cc1ccc(OCC(O)CN2CCCCC2)cc1)Cc1ccnc2ccccc12 (configuration not stated) = 8.47 µM

# IC50 of O=C(N[C@@H]1C/C=C\C[C@H](CC(=O)N(CCO)Cc2ccccc2)C(=O)N[C@@H](Cc2c[nH]c3ccccc23)COC1=O)OCC1c2ccccc2-c2ccccc21 = 10.9 µM

# IC50 of CC[C@@H](O)C[C@H]1CCC[C@@]2(C[C@@H]3OC(=O)/C=C/[C@@](C)(O)[C@@H](O)[C@H](C)[C@@H](O)[C@H](OC4CCC(N(C)C)C(C)O4)[C@@H](O)[C@](C)(O)CCCCC/C=C/[C@@H]4CC(C)(C)O[C@@]4(O)C[C@H](O2)[C@H]3C)O1 (some centres not stated) = < 0.00977 µM

# IC50 of COc1cccc2nc3c(C(=O)NCCN(C)C)cccc3cc12 = 3.02 µM

# IC50 of CCCCCCCOc1ccc(OC(=O)c2cccnc2)cc1 = 1.06 µM
